testedTarget: T1, IIB-Fc:ALK4-Fc heterodimer (human ActRIIB ECD-Fc paired with human ALK4 ECD-Fc) (human, UniProt Q13705-1 19-134; P36896-1 24-126)
T1 construct: activin receptor type IIB (ActRIIB) extracellular domain, human, aa 19-134 of NP_001097.2; copies: 1 + 1
T1 sequence (Q13705 19-134, chain 1 of 2): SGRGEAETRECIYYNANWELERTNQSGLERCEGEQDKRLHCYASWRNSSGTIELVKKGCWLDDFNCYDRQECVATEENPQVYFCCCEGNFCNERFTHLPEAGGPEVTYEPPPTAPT
T1 sequence (P36896 24-126, chain 2 of 2): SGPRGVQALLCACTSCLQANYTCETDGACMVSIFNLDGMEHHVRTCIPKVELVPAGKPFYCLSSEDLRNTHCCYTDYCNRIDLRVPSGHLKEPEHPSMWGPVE
protocol: SPR; Biacore 8K, 37 °C; Fc-fusion receptor dimers captured by anti-human Fc antibody on a CM5 chip (100-150 RU); ligands injected in two-fold dilution series (300 s association, 600 s dissociation); HBS-EP+ supplemented with 350 mM NaCl and 0.5 mg/mL BSA; 1:1 Langmuir model with a term for mass transport
conditionContext: both partners purified
Listing of entries alongside the reported pKd.
Scale: pKd equals -log10([C]), with [C] in mol/L.

Example entries begin here.
binder	recordedMeasurement
BMP6 (ligand, human, UniProt P22004 375-513, looked up, source: bought: R&D Systems) SASSRRRQQSRNRSTQSQDVARVSSASDYNSSELKTACRKHELYVSFQDLGWQDWIIAPKGYAANYCDGECSFPLNAHMNATNHAIVQTLVHLMNPEYVPKPCCAPTKLNAISVLYFDDNSNVILKKYRNMVVRACGCH	9.12
activin A (ligand, human, UniProt P08476 311-426, looked up, source: generated in house) GLECDGKVNICCKKQFFVSFKDIGWNDWIIAPSGYHANYCEGECPSHIAGTSGSSLSFHSTVINHYRMRGHSPFANLKSCCVPTKLRPMSMLYYDDGQNIIKKDIQNMIVEECGCS	10.74
BMP10 (ligand, human, UniProt O95393 317-424, looked up, source: bought: R&D Systems) NAKGNYCKRTPLYIDFKEIGWDSWIIAPPGYEAYECRGVCNYPLAEHLTPTKHAIIQALVHLKNSQKASKACCVPTKLEPISILYLDKGVVTYKFKYEGMAVSECGCR	10.17

Query (binder): activin B (ligand, human, UniProt P09529 293-407, looked up, source: generated in house) GLECDGRTNLCCRQQFFIDFRLIGWNDWIIAPTGYYGNYCEGSCPAYLAGVPGSASSFHTAVVNQYRMRGLNPGTVNSCCIPTKLSTMSMLYFDDEYNIVKRDVPNMIVEECGCA ; field requested: pKd
10.82

Request the reported pKd associated with GDF11 (ligand, human, UniProt O95390 299-407, looked up, source: generated in house) NLGLDCDEHSSESRCCRYPLTVDFEAFGWDWIIAPKRYKANYCSGQCEYMFMQKYPHTHLVQQANPRGSAGPCCTPTKMSPINMLYFNDKQQIIYGKIPGMVVDRCGCS
10.97
